Just for reference, patent US20130288895A1 is where these values come from.

System: Amaranthus palmeri plants (glyphosate-resistant Palmer amaranth, “R-22”)
assay: Topical trigger oligonucleotide bioassay with glyphosate on Amaranthus palmeri
Assay type: in vivo
Design: key: relative measure of activity, the tested oligonucleotide was either active, less active, or inactive in the bioassay; relative measure of activity, the tested oligonucleotide was either active, less active, or inactive in the bioassay; relative measure of activity, the tested oligonucleotide was either active, less active, or inactive in the bioassay
experimental setup: AS83 triggers to EPSPS promoter of glyphosate resistant A. palmeri; 3′/5′ deletions, mismatch mutations; relative measure of activity
measured endpoint: Activity

Known results for sequences:
TTGTTTTTCTTCTGCCAATT (TTGTTTTTCTTCTGCCAATT; chemistry not given here) [AS83-DNA-20-5′D, ssDNA 20-mer] :: active
CTTTGTTTTTCTTCTGCCAATTT (CTTTGTTTTTCTTCTGCCAATTT; chemistry not given here) [AS83-DNA-23-5′D, ssDNA 23-mer] :: active
CTCTTTGTTTTTCTTCTGCC (CTCTTTGTTTTTCTTCTGCC; DNA, backbone and methylation of C not given here) [AS83-DNA-20-3′D, ssDNA 20-mer] :: active
TCTTTGTTTTTCTTCTGCCAATTT (TCTTTGTTTTTCTTCTGCCAATTT; chemistry not given here) [AS83-DNA-24-5′D, ssDNA 24-mer] :: active
CTCTTTGTTTTTCTTCTGCCAATT (CTCTTTGTTTTTCTTCTGCCAATT; chemistry not given here) [AS83-DNA-24-3′D, ssDNA 24-mer] :: active

Report Activity for every entry below.
1. CTC TTT GTT TTT CTT CT (CTCTTTGTTTTTCTTCT; DNA, backbone and methylation of C not given here) [AS83-DNA-17-3′D, ssDNA 17-mer]
2. CTCTTTGTTTTTCTTCTGCCAA (CTCTTTGTTTTTCTTCTGCCAA; chemistry not given here) [AS83-DNA-22-3′D, ssDNA 22-mer]
3. CTC TTT GTT TTT CTT CTG C (CTCTTTGTTTTTCTTCTGC; DNA, backbone and methylation of C not given here) [AS83-DNA-19-3′D, ssDNA 19-mer]
4. CTCTTTGTTTTTCTTCTGCCA (CTCTTTGTTTTTCTTCTGCCA; chemistry not given here) [AS83-DNA-21-3′D, ssDNA 21-mer]
5. CTCTTTGTTTTTCTTCTGCCAAT (CTCTTTGTTTTTCTTCTGCCAAT; chemistry not given here) [AS83-DNA-23-3′D, ssDNA 23-mer]
6. TTGTTTTTCTTCTGCCAATTT (TTGTTTTTCTTCTGCCAATTT; chemistry not given here) [AS83-DNA-21-5′D, ssDNA 21-mer]
7. TTG TTT TTC TTC TGC CA (TTGTTTTTCTTCTGCCA; DNA, backbone and methylation of C not given here) [AS83-DNA-17-5′D, ssDNA 17-mer]
8. TTG TTT TTC TTC TGC CAA (TTGTTTTTCTTCTGCCAA; DNA, backbone and methylation of C not given here) [AS83-DNA-18-5′D, ssDNA 18-mer]

inactive
active
inactive
active
active
active
inactive
inactive

Report Activity for every entry below.
1. TTTGTTTTTCTTCTGCCAATTT (TTTGTTTTTCTTCTGCCAATTT; chemistry not given here) [AS83-DNA-22-5′D, ssDNA 22-mer]
2. CTC TTT GTT TTT CTT CTG (CTCTTTGTTTTTCTTCTG; DNA, backbone and methylation of C not given here) [AS83-DNA-18-3′D, ssDNA 18-mer]
3. CTCTTTGTTTTTCTTCTGCCAATTT (antisense CTCTTTGTTTTTCTTCTGCCAATTT; DNA, backbone and methylation of C not given here; listed as Amaranthus palmeri) [AS83-DNA-25-wt]

["active", "inactive", "active"]
